melting point: recorded values

Given the compound O=C(O)COc1cccc2c(CSCC(O)COc3ccccc3)cccc12 (stereo not shown) [3(5)] , write its reported melting point.
105 to 107 °C

Given the compound O=C(O)COc1cccc2c(CS(=O)(=O)CC(O)COc3ccccc3)cccc12 (stereo not shown) [3(7)] , write its reported melting point.
186 to 190 °C

Given the compound O=C(O)COc1cccc2c(CCSCC(O)COc3ccccc3)cccc12 (stereo not shown) [3(4)] , write its reported melting point.
114 to 115.5 °C

Given the compound O=C(O)COc1cccc2c(CCSC[C@H](O)COc3ccccc3)cccc12 [3(3)] , write its reported melting point.
114 to 115.5 °C
